- Species on record: Rattus norvegicus
- measurement.notes: DrugMatrix - Regimen: Daily Repeat
- Format: toxicity, organism-based, Sprague-Dawley
- Design: regimen Daily Repeat, gender Male, age 6-8 weeks
- measurement.conditions: in vivo, po, 0 mg/kg, 120 h, tissue Plasma, route oral GAVAGE, dose level Control, time 5 day, vehicle .5 % CMC
Would you please tag the item YES when its ASPARTATE AMINOTRANSFERASE is 70 u/L or above, and NO when it is below?

Problem: Would you say O=C1CN=C(c2ccccc2Cl)c2cc([N+](=O)[O-])ccc2N1 shows ASPARTATE AMINOTRANSFERASE at minimum 70 u/L?
Result: YES

Problem: Evaluate Clc1ccccc1CN1CCc2sccc2C1 : ASPARTATE AMINOTRANSFERASE at minimum 70 u/L?
Result: NO

====

- Organism: Rattus norvegicus
- measurement.notes: DrugMatrix - Regimen: Daily Repeat
- Assay type: toxicity, organism-based, Sprague-Dawley
- Design: regimen Daily Repeat, gender Male, age 6-8 weeks
- measurement.conditions: in vivo, po, 0 mg/kg, 72 h, tissue Blood, route oral GAVAGE, dose level Control, time 3 day, vehicle .5 % CMC
measured.parameter: ABSOLUTE BASOPHIL (CELLS/uL)
Provide the reading as a plain figure in CELLS/uL.

molecule: CN/C(=N/CCSCc1nc[nH]c1C)NC#N
recorded.value: 0
--
molecule: O=C1C(CC[S+]([O-])c2ccccc2)C(=O)N(c2ccccc2)N1c1ccccc1 (configuration not stated)
recorded.value: 0
--
molecule: C[C@H]1O[C@@H](n2cc(F)c(=O)[nH]c2=O)[C@H](O)[C@@H]1O
recorded.value: 0
--
molecule: CCN(CC)CCOc1ccc(/C(=C(/Cl)c2ccccc2)c2ccccc2)cc1
recorded.value: 0
--
molecule: COc1ccc2c3c1O[C@H]1C[C@@H](O)C=C[C@@]31CCN(C)C2
recorded.value: 0

Problem: Tell me the measured ABSOLUTE BASOPHIL of O=C1CN=C(c2ccccc2Cl)c2cc([N+](=O)[O-])ccc2N1 , please.
Result: 0

Problem: What ABSOLUTE BASOPHIL value was documented for this molecule, CN(C)[C@@H]1C(O)=C(C(N)=O)C(=O)[C@@]2(O)C(O)=C3C(=O)c4c(O)ccc(Cl)c4[C@@](C)(O)[C@H]3C[C@@H]12 ?
Result: 0

Problem: Sample COC1=C(OC)C(=O)C(CCCCCCCCCCO)=C(C)C1=O — what was its ABSOLUTE BASOPHIL?
Result: 0

Problem: Which ABSOLUTE BASOPHIL value is on record for Cn1c(=O)c2c(ncn2CC(O)CO)n(C)c1=O (configuration not stated) ?
Result: 0

Problem: Consider the molecule COc1cc2nc(N3CCN(C(=O)c4ccco4)CC3)nc(N)c2cc1OC and give its measured ABSOLUTE BASOPHIL.
Result: 0

Problem: Look up ABSOLUTE BASOPHIL: O=C1Nc2ccc(Cl)cc2C(c2ccccc2Cl)=NC1O (configuration not stated)
Result: 0

====

- Organism: Rattus norvegicus
- measurement.notes: DrugMatrix - Regimen: Daily Repeat
- Type: toxicity, organism-based, Sprague-Dawley
- Design: regimen Daily Repeat, gender Male, age 6-8 weeks
- measurement.conditions: in vivo, po, 1500 mg/kg, 72 h, tissue Plasma, route oral GAVAGE, dose level High, time 3 day, vehicle .5 % CMC
measured.parameter: TOTAL PROTEIN (G/DL)
Express it in G/DL; write the number only.

molecule: CN(C)[C@@H]1C(O)=C(C(N)=O)C(=O)[C@@]2(O)C(O)=C3C(=O)c4c(O)ccc(Cl)c4[C@@](C)(O)[C@H]3C[C@@H]12
recorded.value: 6

Problem: Fill blank: measured TOTAL PROTEIN of the molecule CC(C)Oc1ccc2c(=O)c(-c3ccccc3)coc2c1 is ____.
Result: 5.67

Problem: Request the reported TOTAL PROTEIN associated with CC(C)=CCC/C(C)=C/CO
Result: 5.93

Problem: Quick one: TOTAL PROTEIN for COC(=O)Nc1nc2ccc([S+]([O-])c3ccccc3)cc2[nH]1 (stereo not given) ?
Result: 5.43

Problem: Which TOTAL PROTEIN reading was recorded for the molecule O=c1cnn([C@@H]2O[C@H](CO)[C@@H](O)[C@H]2O)c(=O)[nH]1 ?
Result: 5.87
